biological target: IKZF2 (Homo sapiens, UniProt Q96SW2+Q9UKS7); experiment: Prolabel quantification of IKZF2 protein levels in 293GT cells; assay type: cell-based; settings: 10 μM, 24 h, Prolabel assay, 293GT cells
Sequence (Q9UKS7 whole entry): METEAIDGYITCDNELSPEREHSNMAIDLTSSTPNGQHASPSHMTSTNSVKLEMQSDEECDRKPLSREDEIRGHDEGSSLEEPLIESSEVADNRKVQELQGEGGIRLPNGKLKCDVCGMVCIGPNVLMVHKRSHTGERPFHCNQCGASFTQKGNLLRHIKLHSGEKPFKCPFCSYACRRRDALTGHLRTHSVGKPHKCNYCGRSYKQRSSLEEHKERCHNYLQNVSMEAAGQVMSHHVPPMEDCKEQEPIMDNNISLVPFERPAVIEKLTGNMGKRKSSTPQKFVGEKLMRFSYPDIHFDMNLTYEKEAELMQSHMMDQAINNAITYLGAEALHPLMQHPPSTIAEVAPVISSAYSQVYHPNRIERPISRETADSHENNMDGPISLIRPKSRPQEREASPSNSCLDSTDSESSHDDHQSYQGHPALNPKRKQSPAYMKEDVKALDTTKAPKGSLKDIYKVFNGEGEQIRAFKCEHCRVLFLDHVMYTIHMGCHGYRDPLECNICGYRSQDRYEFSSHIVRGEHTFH
Sequence (Q96SW2 whole entry): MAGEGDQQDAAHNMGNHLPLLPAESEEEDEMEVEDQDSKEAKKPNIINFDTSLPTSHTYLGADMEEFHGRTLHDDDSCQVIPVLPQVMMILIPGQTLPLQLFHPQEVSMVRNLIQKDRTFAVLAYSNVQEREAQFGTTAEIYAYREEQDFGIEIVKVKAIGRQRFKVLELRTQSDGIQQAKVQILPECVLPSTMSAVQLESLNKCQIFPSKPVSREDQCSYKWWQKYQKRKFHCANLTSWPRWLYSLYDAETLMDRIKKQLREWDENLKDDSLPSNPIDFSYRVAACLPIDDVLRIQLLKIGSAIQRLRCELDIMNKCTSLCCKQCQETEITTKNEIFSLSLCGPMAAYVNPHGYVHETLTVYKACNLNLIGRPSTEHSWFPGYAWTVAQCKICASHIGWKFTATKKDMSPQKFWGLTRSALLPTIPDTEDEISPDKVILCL
Sequence (Q16531 whole entry partner): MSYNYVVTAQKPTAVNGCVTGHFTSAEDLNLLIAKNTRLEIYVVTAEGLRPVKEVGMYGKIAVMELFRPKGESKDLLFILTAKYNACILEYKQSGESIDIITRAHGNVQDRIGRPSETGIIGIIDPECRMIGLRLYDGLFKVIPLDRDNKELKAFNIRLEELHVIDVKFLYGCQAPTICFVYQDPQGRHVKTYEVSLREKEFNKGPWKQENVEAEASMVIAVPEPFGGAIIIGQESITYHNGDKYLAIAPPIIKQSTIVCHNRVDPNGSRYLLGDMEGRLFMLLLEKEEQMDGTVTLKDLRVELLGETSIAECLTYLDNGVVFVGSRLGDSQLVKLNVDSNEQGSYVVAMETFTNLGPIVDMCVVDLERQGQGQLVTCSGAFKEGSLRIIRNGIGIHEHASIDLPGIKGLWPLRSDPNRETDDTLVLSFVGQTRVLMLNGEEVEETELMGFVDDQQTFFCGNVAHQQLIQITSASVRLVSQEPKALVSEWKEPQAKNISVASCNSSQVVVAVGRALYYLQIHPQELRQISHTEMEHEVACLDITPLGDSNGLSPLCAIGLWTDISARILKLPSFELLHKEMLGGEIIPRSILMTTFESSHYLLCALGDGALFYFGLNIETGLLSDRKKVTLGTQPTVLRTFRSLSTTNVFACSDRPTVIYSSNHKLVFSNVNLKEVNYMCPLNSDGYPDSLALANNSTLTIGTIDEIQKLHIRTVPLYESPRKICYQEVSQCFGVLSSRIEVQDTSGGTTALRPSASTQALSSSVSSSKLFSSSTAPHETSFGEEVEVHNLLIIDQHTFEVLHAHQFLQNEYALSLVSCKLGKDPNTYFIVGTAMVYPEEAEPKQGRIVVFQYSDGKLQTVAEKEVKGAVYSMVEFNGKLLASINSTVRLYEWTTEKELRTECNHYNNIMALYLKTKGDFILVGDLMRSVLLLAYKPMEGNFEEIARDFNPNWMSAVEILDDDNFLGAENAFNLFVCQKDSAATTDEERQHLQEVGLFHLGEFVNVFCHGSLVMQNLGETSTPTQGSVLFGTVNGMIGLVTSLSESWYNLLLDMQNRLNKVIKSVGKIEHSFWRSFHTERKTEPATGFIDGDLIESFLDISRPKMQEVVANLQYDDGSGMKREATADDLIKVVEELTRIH
recorded.endpoint: IKZF2 % protein reduction at 10 μM, 24 h (%)

Known IKZF2 % protein reduction at 10 μM, 24 h results, listed for orientation:
O=C1CCC(N2Cc3cc(-c4n[nH]c5ccccc45)ccc3C2=O)C(=O)N1 (centres unmarked) = 40
CCNc1cnnc(-c2ccc3c(c2)CN(C2CCC(=O)NC2=O)C3=O)c1 (centres unmarked) = 60
O=C1CCC(N2Cc3cc(-c4nn(Cc5ccccc5)c5c4CCCC5)ccc3C2=O)C(=O)N1 (centres unmarked) = 50
Cc1c[nH]nc1-c1ccc2c(c1)CN(C1CCC(=O)NC1=O)C2=O (centres unmarked) = 50

A. Cc1cn(Cc2ccccc2)nc1-c1ccc2c(c1)CN(C1CCC(=O)NC1=O)C2=O (centres unmarked)
B. O=C1CCC(N2Cc3cc(-c4cn(Cc5ccccc5)cn4)ccc3C2=O)C(=O)N1 (centres unmarked)
C. Cc1cc(-c2ccc3c(c2)CN(C2CCC(=O)NC2=O)C3=O)nn1Cc1ccc(C#N)cc1 (centres unmarked)
D. O=C1CCC(N2Cc3cc(-c4ccn(Cc5ccccc5)n4)ccc3C2=O)C(=O)N1 (centres unmarked)
Give the ascending ranking of the items by reported IKZF2 % protein reduction at 10 μM, 24 h. Return the labels ranked in the requested order, please.
B, D, C, A

----------
molecular target: IKZF2 (Homo sapiens, UniProt Q96SW2+Q9UKS7); experiment: Prolabel quantification of IKZF2 protein levels in 293GT cells; assay type: cell-based; conditions: 10 μM, 24 h, Prolabel assay, 293GT cells
recorded.endpoint: IKZF2 % protein reduction at 10 μM, 24 h (%)

Known IKZF2 % protein reduction at 10 μM, 24 h results, listed for orientation:
O=C1CCC(N2Cc3cc(-c4nn(Cc5ccccc5)c5ccccc45)ccc3C2=O)C(=O)N1 (stereo not drawn) [Compound I-19] = 0
Cc1cc(-c2ccc3c(c2)CN(C2CCC(=O)NC2=O)C3=O)nn1Cc1ccccc1 (stereo not drawn) [Compound I-4] = 50
Cc1cc(-c2ccc3c(c2)CN(C2CCC(=O)NC2=O)C3=O)n[nH]1 (stereo not drawn) [Compound I-16] = 0

P. O=C1CCC(N2Cc3cc(-c4cc[nH]n4)ccc3C2=O)C(=O)N1 (stereo not drawn) [Compound I-8]
Q. O=C1CCC(N2Cc3cc(-c4ccc(Cc5ccccc5)nn4)ccc3C2=O)C(=O)N1 (stereo not drawn) [Compound I-24]
Response body: label of entry with the larger IKZF2 % protein reduction at 10 μM, 24 h; valid values P , Q . API: response body contains the label of the selected item.
Q
(Q: 90%, P: 10%)

----------
biological target: IKZF2 (Homo sapiens, UniProt Q96SW2+Q9UKS7); test: Prolabel quantification of IKZF2 protein levels in 293GT cells; type: cell-based
recorded.endpoint: IKZF2 % protein reduction at 10 μM, 24 h (%)
Quick note: give the figure in %, leave out the unit.

Known IKZF2 % protein reduction at 10 μM, 24 h results, listed for orientation:
COc1cc(Cc2ccccc2)nnc1-c1ccc2c(c1)CN(C1CCC(=O)NC1=O)C2=O (stereo not shown) = 73
CCn1nc(-c2ccc3c(c2)CN(C2CCC(=O)NC2=O)C3=O)cc1OC (stereo not shown) = 50
CCNc1ccc(-c2ccc3c(c2)CN(C2CCC(=O)NC2=O)C3=O)nn1 (stereo not shown) = 60
O=C1CCC(N2Cc3cc(-c4nc5[nH]c(=O)ccc5[nH]4)ccc3C2=O)C(=O)N1 (stereo not shown) = 75
CCN(CC)Cc1ccc(-c2ccc3c(c2)CN(C2CCC(=O)NC2=O)C3=O)nn1 (stereo not shown) = 40

Quick check: IKZF2 % protein reduction at 10 μM, 24 h of COc1cc(-c2ccc3c(c2)CN(C2CCC(=O)NC2=O)C3=O)nn1Cc1ccccc1 (stereo not shown) ?
80

Also O=C1CCC(N2Cc3cc(-c4nc5ncccc5[nH]4)ccc3C2=O)C(=O)N1 (stereo not shown) , if possible.
80

Also CO[C@H]1CC[C@H](Cc2ccc(-c3ccc4c(c3)CN(C3CCC(=O)NC3=O)C4=O)nn2)CC1 (stereo partly shown) , if possible.
68

Also O=C1CCC(N2Cc3cc(-c4cccnn4)ccc3C2=O)C(=O)N1 (stereo not shown) , if possible.
80

Also CCn1nc(-c2ccc3c(c2)CN(C2CCC(=O)NC2=O)C3=O)cc1C(F)(F)F (stereo not shown) , if possible.
10
